system: anti-EBNA antibodies; test: ELISA with polypeptide as solid phase antigen, anti-polypeptide activity of sera (OD405); type: binding, human; settings: serum 1:20; SB pre-mononucleosis
Residues, ends and D or L forms follow the SMILES beside them.
propertyName: OD405 × 10^3 obtained with Patient Antibodies to peptide

{"columns": ["compound", "result"],
 "data": [
  ["C[C@H](NC(=O)CNC(=O)CNC(=O)[C@H](C)NC(=O)CNC(=O)[C@H](C)NC(=O)CNC(=O)CNC(=O)CN)C(=O)NCC(=O)N[C@@H](C)C(=O)NCC(=O)NCC(=O)NCC(=O)NCC(=O)N[C@@H](CCCNC(=N)N)C(=O)O [Polypeptide P60] (H-GGGAGAGGAGAGGGGR-OH)", "51 OD405 × 10^3"],
  ["C[C@H](NC(=O)CNC(=O)CNC(=O)[C@H](C)NC(=O)CNC(=O)[C@H](C)NC(=O)CNC(=O)[C@H](C)NC(=O)CNC(=O)[C@@H](NC(=O)CNC(=O)CNC(=O)[C@H](Cc1c[nH]cn1)NC(=O)[C@@H](NC(=O)CNC(=O)[C@@H](N)CCCCN)[C@@H](C)O)[C@@H](C)O)C(=O)NCC(=O)N[C@@H](C)C(=O)NCC(=O)O [Polypeptide P27] (H-KGTHGGTGAGAGAGGAGAG-OH)", "11 OD405 × 10^3"],
  ["C[C@H](N)C(=O)NCC(=O)N[C@@H](C)C(=O)NCC(=O)NCC(=O)NCC(=O)N[C@@H](C)C(=O)NCC(=O)NCC(=O)N[C@@H](C)C(=O)NCC(=O)N[C@@H](C)C(=O)NCC(=O)NCC(=O)NCC(=O)N[C@@H](C)C(=O)NCC(=O)NCC(=O)N[C@@H](C)C(=O)NCC(=O)O [Polypeptide P62] (H-AGAGGGAGGAGAGGGAGGAG-OH)", "13 OD405 × 10^3"],
  ["CSCC[C@H](NC(=O)[C@@H]1CCCN1C(=O)[C@H](CCCNC(=N)N)NC(=O)[C@H](CCCCN)NC(=O)[C@H](CCC(=O)O)NC(=O)CNC(=O)[C@H](CCCNC(=N)N)NC(=O)CNC(=O)[C@H](CCCNC(=N)N)NC(=O)CNC(=O)[C@H](CCCNC(=N)N)NC(=O)CNC(=O)[C@H](CCCNC(=N)N)NC(=O)[C@H](C)NC(=O)[C@@H](N)CCCNC(=N)N)C(=O)O [Polypeptide P89] (H-RARGRGRGRGEKRPM-OH)", "9 OD405 × 10^3"]
]}
